The reported numbers originate from patent US20180171001A1.

Overview of recorded neutralization IC50 for various binders
biological target: Env of HIV-1 strain H086.8 (HIV-1); assay: cell-based or functional assay
Response body: numeric value in µg/mL, unit text excluded.

γ52κ5 (antibody, V domains shown) VH: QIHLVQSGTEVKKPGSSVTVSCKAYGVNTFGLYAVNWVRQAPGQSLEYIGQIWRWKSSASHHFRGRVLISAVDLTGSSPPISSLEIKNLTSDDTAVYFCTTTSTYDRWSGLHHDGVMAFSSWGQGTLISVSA VL: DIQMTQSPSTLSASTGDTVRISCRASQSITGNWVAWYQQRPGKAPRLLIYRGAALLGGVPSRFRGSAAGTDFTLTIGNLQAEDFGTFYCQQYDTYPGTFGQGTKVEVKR; 0.175

Proceed to the following item.
8ANC3484 (antibody, V domains shown) VH: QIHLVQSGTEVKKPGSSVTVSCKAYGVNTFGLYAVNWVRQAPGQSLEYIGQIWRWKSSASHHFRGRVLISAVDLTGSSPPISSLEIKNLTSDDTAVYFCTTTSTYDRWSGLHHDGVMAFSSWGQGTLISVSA VL: DIQMTQSPSTLSASIGDTVRISCRASQSITGNWVAWYQQRPGKAPRLLIYRGAALLGGVPSRFRGSAAGTDFTLTIGNLQAEDFGTFYCQQYDTYPGTFGQGTKVEVKR yielded neutralization IC50 of 0.394
